- assay_explanation: reversal of MRP1-mediated doxorubicin resistance, pilot screen, H69AR cells, doxorubicin co-treatment (AID 601)
- measurement_conditions: H69AR cells, CellTiter-Glo, 72 h; compound alone cytotoxicity; at 10 µM
metric: viability

>>> test_value("Cc1ccccc1-n1c(=O)cc(NCc2ccc3c(c2)OCO3)[nH]c1=O")
"103%"
>>> test_value("Oc1c(Cl)cc(Cl)cc1CNc1ccc(Br)cn1")
"93.2%"
>>> test_value("Cc1cc(C)c(NC(=O)C2CCCN2CCO)c(C)c1 (configuration not stated)")
"86.5%"
>>> test_value("Cc1ccc(CN2C(=O)CCC2C(=O)NCCCN2CCC(C)CC2)cc1 (configuration not stated)")
"103%"
>>> test_value("CCOC(=O)N1CCN(c2ncnc3c2[nH]c2ccc(OC)cc23)CC1")
"81.3%"
>>> test_value("Cc1ccc(-c2cn3nc(C)c(C)nc3n2)cc1")
"85.5%"
>>> test_value("Cc1ccc(C)c(S(=O)(=O)NCc2ccc(C(=O)N3CCN(C)CC3)cc2)c1")
"91.7%"
>>> test_value("Cc1ccc(NC(=O)Nc2ccc3c(c2)N(C)C(=O)CS3)nc1")
"88.3%"
>>> test_value("COc1ccc2nc(N3CCC(C)CC3)c(C#N)cc2c1")
"26.8%"
>>> test_value("O=C1OCCC1Sc1ncnc2sc3c(c12)CCC3 (configuration not stated)")
"104%"
>>> test_value("COc1cccc(CNc2cccc3cccnc23)c1O")
"78.4%"
>>> test_value("COc1ccc(C(=O)N2CCSC2=S)cc1OC")
"82.1%"

----------
Parameter inhibition: see the listing below.
- assay_explanation: growth suppression of yeast trafficking mutant, preliminary HTS, modulators of trafficking downstream of Golgi apparatus project, 1536-format plate, OD 615 nm (AID 637)
- measurement_conditions: yeast transport mutant growth, absorbance 615 nm, 18 h; stronger effect = higher value
The source made the active and inactive calls. Rule as the data show it: active = inhibition above about 30%; inactive = the rest.
metric: inhibition

>>> test_value("O=C(NCCCCNC(=O)c1cccnc1)c1cccnc1")
"34.9% (active)"
>>> test_value("COc1ccc(-c2cc(C(F)(F)F)nc(SCC(=O)NCc3ccco3)n2)cc1OC")
"-0.32% (inactive)"
>>> test_value("COCc1ccccc1Cn1cnc2c1c(=O)n(C)c(=O)n2C")
"0.49% (inactive)"
>>> test_value("COCCn1c(SCC(=O)Nc2nnc(C)s2)nnc1-c1c[nH]c2ccccc12")
"-6% (inactive)"
>>> test_value("O=S(=O)(c1ccccc1)N(Cc1nc(-c2ccccc2)no1)C1CCCCC1")
"-3.33% (inactive)"
>>> test_value("O=C(NCc1ccccn1)c1cccs1")
"4.1% (inactive)"
>>> test_value("O=C(c1cccn2c(=O)c3cc(Cl)ccc3nc12)N1CCOCC1")
"-5.32% (inactive)"
>>> test_value("COc1cc(-c2noc(-c3cccc(Cl)c3)n2)cc(OC)c1OC")
"0.97% (inactive)"
>>> test_value("Cc1cc(-c2nc3ncccc3o2)ccc1N")
"11% (inactive)"
>>> test_value("CCOP(=O)(c1ccc(N(C)C)cc1)C(O)c1cc(OC)c(OC)c(OC)c1 (stereo unspecified)")
"-2.38% (inactive)"
>>> test_value("Cc1ccc(-c2cn3nc(C)c(C)nc3n2)cc1")
"0% (inactive)"

----------
Parameter viability: see the listing below.
- assay_explanation: reversal of MRP1-mediated doxorubicin resistance, pilot screen, H69AR cells, doxorubicin co-treatment (AID 601)
- measurement_conditions: H69AR cells, CellTiter-Glo, 72 h; compound alone cytotoxicity; at 10 µM
metric: viability (%)

>>> test_value("Cc1nnc(SCc2cn3ccsc3n2)n(N)c1=O")
86.5
>>> test_value("CCCCN(c1ccccc1)S(=O)(=O)c1ccc2c(c1)CCN2C(=O)CCC(=O)O")
91.9
>>> test_value("Cc1cc(NC(=O)c2cc3ccccc3o2)cc(C)c1OCC(=O)N1CCOCC1")
90.3
>>> test_value("Cc1cccc(COc2ccc(/C(O)=C3\\C(=O)C(=O)N(CCN(C)C)C3c3ccncc3)cc2)c1 (centres undefined)")
97.3
>>> test_value("O=C(c1ccco1)N1CCN(C(=O)C2CCN(S(=O)(=O)c3cccc4nsnc34)CC2)CC1")
83.5
>>> test_value("C/C(=N\\O)C(=O)NCCCNCCCN(C)C")
98.2
>>> test_value("Cc1ccccc1CNS(=O)(=O)c1ccc2c(c1)OCCO2")
109
>>> test_value("Cc1ccc(S(=O)(=O)Nc2nc3ccccc3nc2NCc2ccco2)cc1")
22.5
>>> test_value("COCCn1c(C)cc(C(=O)COC(=O)c2n[nH]c3ccccc23)c1C")
81.3
>>> test_value("CCN(CC)S(=O)(=O)c1ccc(F)cc1")
93
>>> test_value("O=C(C1CCC1)N1CCc2cc(S(=O)(=O)N3CCc4ccccc4C3)ccc21")
89
>>> test_value("C=CCn1c(COc2ccccc2F)nnc1SCC(=O)N1CC(=O)Nc2ccccc21")
92.2
>>> test_value("Cc1nnc(NC(=O)c2ccccc2F)s1")
104
>>> test_value("Cc1ccc(N2CC(C(=O)N3CCN(C(=O)c4ccco4)CC3)CC2=O)cc1 (centres undefined)")
96.1
>>> test_value("CCCn1nnnc1SCC(=O)c1ccc2c(c1)OCCO2")
106
>>> test_value("COc1ccc(S(=O)(=O)n2ccnc2)c2cccnc12")
96.1
>>> test_value("CC1Cc2nc(SCC(=O)Nc3ccc(F)cc3F)n(C)c(=O)c2S1 (centres undefined)")
91.7
>>> test_value("CCOCCCNC(=O)CCNS(=O)(=O)c1ccc(C)cc1")
105
>>> test_value("Cc1ccc(S(=O)(=O)C2(C(=O)Nc3nccs3)CC2)cc1")
101
>>> test_value("Cc1ccc(-c2cc(C(F)(F)F)n3ncc(C(=O)O)c3n2)cc1")
99.7
>>> test_value("OCCN1CCN(CC(O)COc2ccc3ccccc3c2)CC1 (centres undefined)")
102
>>> test_value("COC(=O)CC1C(=O)NCCN1C(=O)NC1CCCCC1 (centres undefined)")
98.8
>>> test_value("C=CCNC(=O)CSc1ccc(Cl)cc1")
81.4
>>> test_value("O=C(Nc1nnc(COc2ccc(F)cc2)s1)c1cccs1")
106

Hey, just so you know, these numbers are from PubChem BioAssay.
